# assayed-target: human glucagon receptor (Homo sapiens, UniProt P47871)
# Construct: made in house; host or cells: FreeStyle CHO cells, transient transfection with pMSRαneo/hGCGR; membrane fraction (35,000 rpm pellet)
# Sequence (P47871 26-477): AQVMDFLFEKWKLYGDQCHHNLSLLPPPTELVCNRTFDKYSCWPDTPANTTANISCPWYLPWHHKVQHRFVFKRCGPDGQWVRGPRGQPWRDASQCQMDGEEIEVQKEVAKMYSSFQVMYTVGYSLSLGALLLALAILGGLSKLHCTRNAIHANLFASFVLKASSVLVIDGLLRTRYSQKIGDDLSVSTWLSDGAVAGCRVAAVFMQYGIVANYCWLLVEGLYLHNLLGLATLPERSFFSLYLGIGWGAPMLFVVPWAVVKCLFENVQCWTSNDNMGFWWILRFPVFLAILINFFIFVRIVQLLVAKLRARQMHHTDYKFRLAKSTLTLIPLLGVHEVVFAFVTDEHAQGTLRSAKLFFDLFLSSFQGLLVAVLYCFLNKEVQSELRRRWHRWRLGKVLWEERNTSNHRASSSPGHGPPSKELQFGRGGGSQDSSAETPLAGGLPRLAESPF
# test: Glucagon binding inhibitory activity ([125I]-glucagon binding to glucagon receptor membrane protein)
# condition-notes: test compound 10 μM; 0.4% DMSO = 0%, non-labeled glucagon 1 μM = 100%; read-out: inhibitory rate (%) at 10 μM
Tick Criterion met if inhibition at 10 µM is 70% or greater. Tick Criterion not met if inhibition at 10 µM is less than 70%.

INPUT: Is inhibition at 10 µM for Cc1c(C(Nc2ccc(C(=O)N(C)CCC(=O)O)cc2)C2CCCCC2)oc2ccc(Oc3ccccn3)cc12 (stereo not drawn) [Example A200] at or above 70%?
OUTPUT: Criterion met

INPUT: Same thing, different compound: O=C(O)CCNC(=O)c1ccc(NC(c2cn(-c3ccc(C(F)(F)F)cn3)nc2C2CC2)C2CCCCC2)cc1 (stereo not drawn) [Example 9]
OUTPUT: Criterion met

INPUT: One more compound: COCc1nn(-c2ccc(OC)cc2)cc1C(Nc1ccc(C(=O)NCCC(=O)O)cc1)C1CCCCC1 (stereo not drawn) [Example 35]
OUTPUT: Criterion met

INPUT: Lookup Cc1c(C(Nc2ccc(C(=O)N(C)CCC(=O)O)cc2)C2CCCCC2)oc2ccc(OCC(C)(C)O)cc12 (stereo not drawn) [Example A195]
OUTPUT: Criterion met

INPUT: Again, but for COc1ccc2oc(C(Nc3ccc(C(=O)NCCC(=O)O)cc3)C3CCCCC3)c(C)c2c1 (stereo not drawn) [Example A30]
OUTPUT: Criterion met

INPUT: Try Cc1c(C(Nc2ccc(C(=O)N(C)CCC(=O)O)cc2)C2CCCCC2)oc2ccc(OCc3ccccn3)cc12 (stereo not drawn) [Example A155] next.
OUTPUT: Criterion met

INPUT: What about this compound? COc1cccc(-n2cc(C(Nc3ccc(C(=O)N(C)CCC(=O)O)cc3)C3CCCCC3)c(C)n2)c1 (stereo not drawn) [Example 70]
OUTPUT: Criterion met

INPUT: Repeat for the following compound: Cc1nn(-c2ccccc2Cl)cc1C(Nc1ccc(C(=O)N(C)CCC(=O)O)cc1)C1CCCCC1 (stereo not drawn) [Example 73]
OUTPUT: Criterion not met

INPUT: How about this compound: Cc1c(C(Nc2ccc(C(=O)NCCC(=O)O)cc2)C2CCCCC2)oc2c(F)cc(F)cc12 (stereo not drawn) [Example A163]
OUTPUT: Criterion met

INPUT: Entry to check: O=C(O)CCNC(=O)c1ccc(NC(c2cn(-c3ccc(C(F)(F)F)cn3)nc2CCc2ccccc2)C2CCCCC2)cc1 (stereo not drawn) [Example 11]
OUTPUT: Criterion met

INPUT: Now consider CC(C)Oc1nn(-c2ccc(OC(F)(F)F)cc2)cc1C(Nc1ccc(C(=O)N(C)CCC(=O)O)cc1)C1CCCCC1 (stereo not drawn) [Example 65] and answer again.
OUTPUT: Criterion not met

INPUT: Moving on to CN(CCC(=O)O)C(=O)c1ccc(NC(c2cn(-c3ccc(C(F)(F)F)cn3)nc2C2CC2)C2CCCCC2)cc1 (stereo not drawn) [Example 10]
OUTPUT: Criterion met

----------
What inhibition at 10 µM was measured for each of the following?
# assayed-target: human glucagon receptor (Homo sapiens, UniProt P47871)
# Construct: made in house; host or cells: FreeStyle CHO cells, transient transfection with pMSRαneo/hGCGR; membrane fraction (35,000 rpm pellet)
# test: Glucagon binding inhibitory activity ([125I]-glucagon binding to glucagon receptor membrane protein)
# condition-notes: test compound 10 μM; 0.4% DMSO = 0%, non-labeled glucagon 1 μM = 100%; read-out: inhibitory rate (%) at 10 μM
Give the quantity in %, number only.

INPUT: Any idea what its inhibition at 10 µM is? The compound is CCc1nn(-c2ccc(C(F)(F)F)cn2)cc1C(Nc1ccc(C(=O)NCCC(=O)O)cc1)C1CCCCC1 (stereo not shown) [Example 3]
OUTPUT: 74

INPUT: Please give the result for Cc1c(C(Nc2ccc(C(=O)N(C)CCC(=O)O)cc2)C(C)C)oc2ccc(OC3CCOCC3)cc12 (stereo not shown) [Example A180] too.
OUTPUT: 83

INPUT: Now this one: Cc1c(C(Nc2ccc(C(=O)N(C)CCC(=O)O)cc2)C2CCCCC2)oc2c(F)cc(F)cc12 (stereo not shown) [Example A164]
OUTPUT: 85

INPUT: And then CCOc1cccc(-n2cc(C(Nc3ccc(C(=O)NCC(C)C(=O)O)cc3)C3CCCCC3)c(CC)n2)c1 (stereo not shown) [Example 92] , what is it?
OUTPUT: 56

INPUT: Now try CCC(CC)C(Nc1ccc(C(=O)N(C)CCC(=O)O)cc1)c1sc2ccccc2c1C (stereo not shown) [Example A135] .
OUTPUT: 76

INPUT: And the next one, Cc1c(C(Nc2ccc(C(=O)N(C)CCC(=O)O)cc2)C2CCCCC2)oc2ccc(NCc3ccccc3)cc12 (stereo not shown) [Example A131] ?
OUTPUT: 87

INPUT: Also check CN(CCC(=O)O)C(=O)c1ccc(NC(c2cc3ccccc3o2)C2CCCCC2)cc1 (stereo not shown) [Example A4]
OUTPUT: 66

----------
Field: inhibition at 10 µM. Provide a value for each of the molecules that follow.
# assayed-target: human glucagon receptor (Homo sapiens)
# Construct: made in house; host or cells: FreeStyle CHO cells, transient transfection with pMSRαneo/hGCGR; membrane fraction (35,000 rpm pellet)
# test: Glucagon binding inhibitory activity ([125I]-glucagon binding to glucagon receptor membrane protein)
# condition-notes: test compound 10 μM; 0.4% DMSO = 0%, non-labeled glucagon 1 μM = 100%; read-out: inhibitory rate (%) at 10 μM
// return numeric value only (unit: %, not printed)

INPUT: For the record Cc1c(C(CC(C)C)Nc2ccc(C(=O)N(C)CCC(=O)O)cc2)oc2ccc(OCc3ccccc3)cc12 (stereo not shown) , what value of inhibition at 10 µM is listed for human glucagon receptor (Homo sapiens)?
OUTPUT: 74

INPUT: Try this molecule too: Cc1c(C(Nc2ccc(C(=O)N(C)CCC(=O)O)cc2)C2CCCCC2)oc2ccc(OCc3ccncc3)cc12 (stereo not shown)
OUTPUT: 80

INPUT: For CN(CCC(=O)O)C(=O)c1ccc(NC(c2csc3ccccc23)C2CCCCC2)cc1 (stereo not shown) then?
OUTPUT: 64

INPUT: What do you get for COc1cc(OC)cc(-n2cc(C(Nc3ccc(C(=O)N(C)CCC(=O)O)cc3)C3CCCCC3)c(C)n2)c1 (stereo not shown) ?
OUTPUT: 82

INPUT: Cool, now CC(C)Oc1nn(-c2ccc(OC(F)(F)F)cc2)cc1C(Nc1ccc(C(=O)NCCC(=O)O)cc1)C1CCCCC1 (stereo not shown)
OUTPUT: 70

INPUT: What do we get for Cc1c(C(Nc2ccc(C(=O)NCCC(=O)O)cc2)C(C)C)oc2ccc(F)cc12 (stereo not shown) ?
OUTPUT: 80

INPUT: Next: Cc1nn(-c2ccc(C(F)(F)F)cn2)cc1C(Nc1ccc(C(=O)N(C)CCC(=O)O)cc1)C1CCCCC1 (stereo not shown)
OUTPUT: 72

----------
# assayed-target: human glucagon receptor (Homo sapiens)
# Construct: made in house; host or cells: FreeStyle CHO cells, transient transfection with pMSRαneo/hGCGR; membrane fraction (35,000 rpm pellet)
# test: Glucagon binding inhibitory activity ([125I]-glucagon binding to glucagon receptor membrane protein)
# condition-notes: test compound 10 μM; 0.4% DMSO = 0%, non-labeled glucagon 1 μM = 100%; read-out: inhibitory rate (%) at 10 μM
For each of the compounds below, state its inhibition at 10 µM.
Report field: quantity (unit follows the number).

INPUT: inhibition at 10 µM of CCCCCCC(Nc1ccc(C(=O)NCCC(=O)O)cc1)c1oc2ccc(OC)cc2c1C (stereo not shown) on human glucagon receptor (Homo sapiens)?
OUTPUT: 70%

INPUT: Repeat for the following compound: Cc1c(C(Nc2ccc(C(=O)NCCC(=O)O)cc2)C2CCCCC2)oc2ccc(Cl)nc12 (stereo not shown)
OUTPUT: 71%

INPUT: Would you mind doing Cc1c(C(Nc2ccc(C(=O)NCCC(=O)O)cc2)C2CCCCC2)sc2ncccc12 (stereo not shown) as well?
OUTPUT: 87%

INPUT: Check COCCOCc1c(C(Nc2ccc(C(=O)NCCC(=O)O)cc2)C2CCCCC2)oc2ccc(F)cc12 (stereo not shown) too.
OUTPUT: 83%

----------
Task for the reader: assign each of the following compounds its reported inhibition at 10 µM.
# assayed-target: human glucagon receptor (Homo sapiens)
# Construct: made in house; host or cells: FreeStyle CHO cells, transient transfection with pMSRαneo/hGCGR; membrane fraction (35,000 rpm pellet)
# test: Glucagon binding inhibitory activity ([125I]-glucagon binding to glucagon receptor membrane protein)
# condition-notes: test compound 10 μM; 0.4% DMSO = 0%, non-labeled glucagon 1 μM = 100%; read-out: inhibitory rate (%) at 10 μM
Respond numerically; units are % and should not be typed.

INPUT: What does the record list as inhibition at 10 µM for Cc1nn(-c2ccc(OC(F)(F)F)cc2)cc1C(Nc1ccc(C(=O)N(C)CCC(=O)O)cc1)C1CCCCC1 (stereo not shown) [Example 26] ?
OUTPUT: 72

INPUT: Now the same for COc1ccc2nc(C(Nc3ccc(C(=O)NCCC(=O)O)cc3)C3CCCCC3)n(C)c2c1 (stereo not shown) [Example A116]
OUTPUT: 58

INPUT: Now the compound CCc1oc2ccccc2c1C(Nc1ccc(C(=O)NCCC(=O)O)cc1)C1CCCCC1 (stereo not shown) [Example A29]
OUTPUT: 77

INPUT: How about COCCCCC(Nc1ccc(C(=O)NCCC(=O)O)cc1)c1oc2ccc(OC)cc2c1C (stereo not shown) [Example A123] ?
OUTPUT: 71

Data credit: patent US8436043B2
